targetSystem: T1, human ErbB3 extracellular domain (ECD, residues 21-643) (Homo sapiens, UniProt P21860)
T1 construct: ErbB3 (HER3) receptor, human, extracellular domain, residues 21-643; secreted with the Igκ leader of the pEE vector; Glycosylated, MW 75 kDa; also called ErbB3 ECD; HER3 extracellular domain; source: CHO-T-HC cells, transiently transfected, secreted, purified (IMAC on HisTrap, SEC on Superdex 200 pg)
T1 sequence (P21860 21-643 R488S): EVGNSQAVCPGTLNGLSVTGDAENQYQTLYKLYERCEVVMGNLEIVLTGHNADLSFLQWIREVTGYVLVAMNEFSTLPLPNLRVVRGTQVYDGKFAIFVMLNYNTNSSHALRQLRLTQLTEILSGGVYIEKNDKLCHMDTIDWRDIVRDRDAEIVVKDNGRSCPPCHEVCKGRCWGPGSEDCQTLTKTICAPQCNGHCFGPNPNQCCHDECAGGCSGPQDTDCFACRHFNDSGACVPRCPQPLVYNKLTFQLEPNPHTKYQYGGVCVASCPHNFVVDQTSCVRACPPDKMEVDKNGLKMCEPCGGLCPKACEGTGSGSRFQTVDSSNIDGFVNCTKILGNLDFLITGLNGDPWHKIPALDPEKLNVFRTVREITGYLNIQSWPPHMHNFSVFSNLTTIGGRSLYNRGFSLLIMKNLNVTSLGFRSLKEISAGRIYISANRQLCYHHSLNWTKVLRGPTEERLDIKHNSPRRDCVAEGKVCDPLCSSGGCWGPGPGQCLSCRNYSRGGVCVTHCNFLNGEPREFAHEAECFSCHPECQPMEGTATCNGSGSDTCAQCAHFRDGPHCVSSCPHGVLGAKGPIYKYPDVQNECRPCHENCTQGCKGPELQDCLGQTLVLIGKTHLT
assayProtocol: SPR; ErbB3 ECD immobilised on a CM5 chip by amine coupling; Biacore T200, 37 °C; antibodies in HBS (10 mM HEPES pH 7.4, 150 mM NaCl) with 50 µg/mL BSA; sensograms fitted globally by a 1:1 model at three concentrations near KD; geometric means of two experiments
particulars: both partners purified
Assign pKd to each entry below.
Give only the number. pKd is defined as minus log10 of concentration in molar units.

### Prompt I'd like to know its pKd. The binder in question is BCD090-M2 (VHH, llama VHH from a phage display library; the product left after TEV cleavage; no PDB id is printed; also called anti-ErbB3 single-domain antibody BCD090-M2; source: E. coli SHuffle T7 express, cytoplasmic, purified (IMAC, TEV cleavage, negative IMAC, ion exchange); not shown: His tag, N-terminal, cleaved; SUMO, N-terminal, cleaved) VHH: QVQLVQSGGGLVQAGGSLRLSCAFSGRTFSMYTMGWFRQAPGKEREFVAANRGRGLSPDIADSVNGRFTISRDNAKNTLYLQMDSLKPEDTAVYYCAADLQYGSSWPQRSSAEYDYWGQGTTVTVSS
### Response 7.78

### Prompt Try this binder too: pelB-BCD090-P1-His5 (VHH, as the VHH of m1 (BCD090-P1), with the uncleaved pelB leader and a histidine tag; also called BCD090-P1 purified from the periplasm; periplasmically expressed BCD090-P1; source: E. coli, periplasmic expression (pET22b), purified; not shown: pelB leader (uncleaved), N-terminal, kept; His5, C-terminal, kept) VHH: EVQLVQSGGGLVQPGGSLRLSCAASGRTSSKYAMGWFRQAPGKGTEFVATISWSDGSTYYADSVEGRFTISRDNAKNTVYLQMNSLKPEDTAVYYCAAAVDVLAGTFEYEYDYWGQGTLVTVSS
### Response 8.29

### Prompt Can you check BCD090-P1 (VHH, llama VHH from a phage display library; the product left after TEV cleavage; Monomer by SEC; One disulfide bond Cys22-Cys92; also called anti-ErbB3 single-domain antibody BCD090-P1; source: E. coli SHuffle T7 express or BL21(DE3), cytoplasmic, purified (IMAC, TEV cleavage, negative IMAC, ion exchange); not shown: His tag, N-terminal, cleaved; SUMO, N-terminal, cleaved) VHH: EVQLVQSGGGLVQPGGSLRLSCAASGRTSSKYAMGWFRQAPGKGTEFVATISWSDGSTYYADSVEGRFTISRDNAKNTVYLQMNSLKPEDTAVYYCAAAVDVLAGTFEYEYDYWGQGTLVTVSS next?
### Response 8.80

### Prompt Would you kindly repeat that for BCD090-M456 (VHH, llama VHH from a phage display library; the product left after TEV cleavage; Lacks the Cys22-Cys92 disulfide bond (cysteines reduced); CDR H3 of 23 residues; also called anti-ErbB3 single-domain antibody BCD090-M456; source: E. coli SHuffle T7 express or BL21(DE3), cytoplasmic, purified (IMAC, TEV cleavage, negative IMAC, ion exchange); not shown: His tag, N-terminal, cleaved; SUMO, N-terminal, …) VHH: QVQLVQSGGGLVQSGGSLKLSCVASGGPFSTYLMGWFRQAPGKEREFVTAISRSGLNTYYADSVKGRFTISRDNAKNTVYLQMHSLKPEDTAVYHCAARRGGTNSGSYYFDRPAVSDEYDLWGQGTLVTVSS ?
### Response 5.51
